Provenance of the data: patent US20170081400A1

Measured Fold improvement over 320-179, TL1A induced caspase potency assay in TF-1 cells values are reported for all entries that follow.
Experimental system: T1, human TL1A extracellular domain with N-terminal HIS and FLAG tag (human, UniProt O95150 72-251)
T1 sequence: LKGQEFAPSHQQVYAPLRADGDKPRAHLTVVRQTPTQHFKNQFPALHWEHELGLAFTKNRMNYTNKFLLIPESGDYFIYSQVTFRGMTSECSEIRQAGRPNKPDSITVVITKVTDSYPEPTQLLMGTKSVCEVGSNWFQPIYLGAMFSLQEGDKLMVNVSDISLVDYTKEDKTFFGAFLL
Procedure details: cell-based or functional assay
Reported property: Fold improvement over 320-179, TL1A induced caspase potency assay in TF-1 cells (fold)

INSERT INTO measurements (binder, display_unit, value_measured) VALUES
  ('320-278 (antibody, human IgG1, V domains shown) VH: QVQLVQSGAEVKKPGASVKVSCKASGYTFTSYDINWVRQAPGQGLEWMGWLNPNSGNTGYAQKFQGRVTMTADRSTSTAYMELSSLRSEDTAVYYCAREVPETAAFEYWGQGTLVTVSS VL: QSVLTQPPSVSGAPGQRVTISCTSSSSDIGAGQGVHWYQQLPGTAPKLLIEGYYNRPSGVPDRFSGSKSGTSASLTITGLLPEDEGDYYCQSYDGTLSALFGGGTKLTVLG', 'fold', 2),
  ('320-593 (antibody, human IgG1, name in Kabat numbering, V domains shown, full-length human IgG1, lambda) VH: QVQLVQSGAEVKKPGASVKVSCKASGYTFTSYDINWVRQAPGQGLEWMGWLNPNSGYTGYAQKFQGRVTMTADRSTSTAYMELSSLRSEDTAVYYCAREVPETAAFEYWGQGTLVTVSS VL: QSVLTQPPSVSGAPGQRVTISCTSSSSDIGAGSGVHWYQQLPGTAPKLLIEGYYNRPSGVPDRFSGSKSGTSASLTITGLLPEDEGDYYCQSWDGTLSALFGGGTKLTVLG', 'fold', 15),
  ('320-601 (antibody, human IgG1, name in Kabat numbering, V domains shown, full-length human IgG1, lambda) VH: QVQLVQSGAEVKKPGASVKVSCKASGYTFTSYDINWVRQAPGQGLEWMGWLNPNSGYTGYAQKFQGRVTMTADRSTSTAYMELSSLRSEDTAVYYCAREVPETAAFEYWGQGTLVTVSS VL: QSVLTQPPSVSGAPGQRVTISCTSSSSDIGAGLGVHWYQQLPGTAPKLLIEGYYNRPSGVPDRFSGSKSGTSASLTITGLLPEDEGDYYCQSFDGTLSALFGGGTKLTVLG', 'fold', 10);
